# experimental.protocol: Human pharmacokinetic study, single oral dose
# Assay type: in vivo
# measurement.setup: both, human, plasma, po, 300 mg

# line.notation, Cmax / ng/mL
rows = [
    ("CS(=O)(=O)CCC#N", 9800),
]

* * *

# experimental.protocol: Human pharmacokinetic study, repeated daily oral dosing for 8 d
# Format: in vivo
# measurement.setup: both, human, plasma, oral, 300 mg
observation.type: Cmax

# line.notation, experimental.value
measured = [
    ("CS(=O)(=O)CCC#N", "15800 ng/mL"),
]

* * *

# experimental.protocol: Human pharmacokinetic study, single oral dose
# Type: in vivo
# measurement.setup: both, human, plasma, po, 100 mg

# compound, measurement.units, Cmax
data = [
    ("CS(=O)(=O)CCC#N [OLT1177]", "ng/mL", 2700),
]
